biological target: SARS-CoV-2 spike S1 subunit (SARS-CoV-2, UniProt P0DTC2 SEQ:1-670); assay: BLI; settings: tags: His tag, SinoBiological 40591-V08B1; label: 5'-biotin
observed property: binding result

binder: S1_A3-A (ssDNA) DNA: CCAGTGTAGACTACTCAATGCGTGGGAAGGGTGGGTGGGAGCATTGATAACTCGGAGGAGTGTACTATCCACAGGTCAACC
result: binds

binder: S1_A6 (ssDNA) DNA: CCAGTGTAGACTACTCAATGCTGTTATGACTTGACCTTGGGTTATGGGTTTGGGCGGGAGGGTACTATCCACAGGTCAACC
result: binds

binder: S1_A8 (ssDNA) DNA: CCAGTGTAGACTACTCAATGCTGTGTTGACTTGATCCTGTGGTATATGGGTGGGAGGGTCGGGTACTATCCACAGGTCAACC
result: binds

binder: S1_F2 (ssDNA) DNA: CCAGTGTAGACTACTCAATGCTGCGTTGACTTGATCCTGTGGTATATGGGTGGGAGGGTCGGGTACTATCCACAGGTCAACC
result: binds
